Cited source for all entries: patent US6921777B2

Molecular target: RXRalpha (Homo sapiens)
Sequence (P19793 1-462): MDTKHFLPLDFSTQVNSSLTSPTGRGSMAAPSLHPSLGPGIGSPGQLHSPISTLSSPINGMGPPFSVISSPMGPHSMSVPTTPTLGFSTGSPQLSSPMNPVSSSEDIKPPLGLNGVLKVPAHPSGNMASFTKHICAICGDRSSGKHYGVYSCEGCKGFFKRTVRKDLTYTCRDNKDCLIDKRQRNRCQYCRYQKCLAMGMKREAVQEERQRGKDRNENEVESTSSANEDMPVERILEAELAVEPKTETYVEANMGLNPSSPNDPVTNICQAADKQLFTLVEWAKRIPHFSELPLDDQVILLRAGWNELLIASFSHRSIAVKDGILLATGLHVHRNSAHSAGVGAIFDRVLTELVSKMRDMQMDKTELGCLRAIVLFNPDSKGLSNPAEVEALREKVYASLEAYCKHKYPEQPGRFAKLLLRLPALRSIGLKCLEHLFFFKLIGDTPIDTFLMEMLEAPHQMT
Assay: RXR antagonist transactivation test (cotransfection pSG5-RXRalpha / CRBPII-tk-Luc, luciferase)
Details: Cos7 cells; in the presence of 3 nM agonist 6-[1-(3,5,5,8,8-pentamethyl-5,6,7,8-tetrahydro-2-naphthalenyl)cyclopropyl]nicotinic acid; 5 concentrations 10^−5 to 10^−9 M; read-out: IC50 (dose required to achieve 50% inhibition of the agonist activity)
READOUT_TYPE: IC50 (nM)

COMPOUND: COCOc1cc([Se]C#CC(C)=CC(=O)O)cc2c1C(C)(C)CCC2(C)C [EXAMPLE 14]
READOUT_TYPE: IC50
REPORTED_RESULT: 471

A. CCCOc1cc2c(cc1[Se]C#CC(C)=CC(=O)O)C(C)(C)CCC2(C)C [EXAMPLE 10]
B. CCCOc1cc([Se]C#CC(C)=CC(=O)O)cc2c1C(C)(C)CCC2(C)C [EXAMPLE 12]
Choose between A and B : whose measured IC50 value is numerically larger? // respond with label for picked entry A
(A: 671 nM, B: 71 nM)
